target-of-assay: human Y4 receptor (human, UniProt P50391 1-375)
Sequence (P50391 whole entry): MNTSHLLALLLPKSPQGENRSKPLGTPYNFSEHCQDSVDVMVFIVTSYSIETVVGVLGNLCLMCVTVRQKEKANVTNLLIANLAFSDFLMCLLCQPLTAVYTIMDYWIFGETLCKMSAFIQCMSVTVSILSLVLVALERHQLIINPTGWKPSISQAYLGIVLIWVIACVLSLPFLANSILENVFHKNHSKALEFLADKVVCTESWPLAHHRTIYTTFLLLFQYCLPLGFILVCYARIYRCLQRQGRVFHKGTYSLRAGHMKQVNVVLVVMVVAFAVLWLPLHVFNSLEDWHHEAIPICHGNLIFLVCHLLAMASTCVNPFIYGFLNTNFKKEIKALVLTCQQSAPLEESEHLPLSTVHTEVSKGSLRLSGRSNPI
experiment-notes: 125I-PP displacement
pIC50: −log10 of the molar value.
test-readout: pIC50

binder	pIC50
PAPLEPKYPGDNATPEELARYAAELRRYINKLTRPRY [4060138]	9.87
PAPLKPEYPGDNATPEQLAKYAAELRRYINKLTRPRY [4059859]	9.97
PAPLEPEYPGDDATPEQMAKYAAELRRYINKLTRPRY [4060205]	9.95
